# Test system: HACAT
# Experiment: qHTS assay to identify novel small-molecules to repurpose for Merkel cell carcinoma treatment (AID 1296009); further: nearly all actives have a fitted effect of over 60% in size
# Conditions Used: MCC and control cell lines, CellTiter-Glo viability, 72 h; at 44.8 µM (top of the series) unless noted
Results filed as inconclusive are left out. Calls of active or inactive are those of the source. The call rests on the fitted dose curve; in most records, active means well fitted inhibition curve with a large enough effect; inconclusive means small, poorly fitted or top-dose-only effect; inactive means flat fitted curve, though single readings scatter.
Result Type: outcome

Illustrative cases are given below, each with its answer.
compound="Cc1cccc(C)c1OCC(C)N (stereo not given)" value_observed=inactive
compound=NC(=O)NN=Cc1ccc([N+](=O)[O-])o1 value_observed=inactive
compound=CC(=Cc1ccccc1)C=C1SC(=S)N(CC(=O)O)C1=O value_observed=inactive
compound=c1cc(-c2sc(-c3ccncc3)c(-c3ccncc3)c2-c2ccncc2)ccn1 value_observed=inactive
compound=N[C@H](CSC(c1ccccc1)(c1ccccc1)c1ccccc1)C(=O)O value_observed=inactive
compound=CC1(C)S[C@H]2[C@H](NC(=O)[C@@H](N)c3ccc(O)cc3)C(=O)N2[C@@H]1C(=O)O value_observed=inactive
compound=Nc1ncnc2c1ncn2[C@@H]1O[C@@H](CO)[C@H](O)[C@H]1O value_observed=inactive
compound="COc1ccc2c3c1OC1C[C@@H](O)C=C[C@@]31CCN(C)C2 (stereo not given in full)" value_observed=inactive

# evaluate next
outcome in this record for CCOC(=O)C1=C(N)Oc2ccc(Br)cc2C1C(C#N)C(=O)OCC (stereo not given) : inactive

###

# Experiment: Quantitative High-Throughput drug screen in 47 multiple myeloma cell lines against the NCATS MIPE library collection: MM1S_ATCC cell viability assay (AID 1918980); further: potency means the concentration at half of the fitted maximal effect; nearly all actives have a fitted effect of over 45% in size
# Conditions Used: MM1S myeloma viability, CellTiter-Glo ATP luminescence, 48 h; series mostly up to 45.8 µM
Inconclusive results are not listed. Active and inactive are the calls of the source. The call rests on the fitted dose curve; in most records, active means well fitted cell-killing curve with a large enough effect; inconclusive means small, poorly fitted or top-dose-only effect, or effect the other way; inactive means no such curve, though single readings can be large or run the other way.
Result Type: Potency

sample_smiles=CO[C@H]1C=CC=C(C)C(=O)NC2=CC(=O)C(NCCN(C)C)=C(C[C@@H](C)C[C@H](OC)[C@@H](O)[C@@H](C)C=C(C)[C@@H]1OC(N)=O)C2=O result_type=Potency value_observed="0.105 µM (active)"
sample_smiles=O=c1cc(-c2cccc3c2Sc2ccccc2S3)oc(N2CCOCC2)c1 result_type=Potency value_observed="18.7 µM (active)"
sample_smiles=CC[C@@H]1C=C(C)C[C@H](C)C[C@H](OC)[C@H]2O[C@@](O)(C(=O)C(=O)N3CCCC[C@@H]3C(=O)O[C@H](C(C)=C[C@@H]3CC[C@H](Cl)[C@H](OC)C3)[C@H](C)[C@@H](O)CC1=O)[C@H](C)C[C@H]2OC result_type=Potency value_observed="14.8 µM (active)"

Lab note: CNC(=O)c1ccccc1Sc1ccc2c(C=Cc3ccccn3)n[nH]c2c1 gave Potency of 16.6 µM (active)

###

# Experiment: qHTS drug screen for cell cycle checkpoint inhibitors in PARPi-resistant BRCA-mutant ovarian cancer cell lines. (AID 1963452)
# Conditions Used: PEO1/OlaR viability, CellTiter-Glo luminescence, 96 h; measured here: PEO1 parental Z-AUC; stronger effect = lower value
Result Type: Z-AUC

Study these solved cases before continuing.
compound=O=C(N[C@@H](c1ccccc1)[C@@H]1CCCCN1)c1cccc(C(F)(F)F)c1Cl value_observed=0.513
compound=CC(C)(C)C(=O)Oc1ccc2c(c1)nc(NC(=O)c1cccc([N+](=O)[O-])c1)n2CCCO value_observed=0.0755
compound="COCCOC(=O)C1=C(C)NC2=C(C(=O)CC(c3ccccc3OC)C2)C1c1cccc(O)c1 (centres undefined)" value_observed=0.425

Kindly consider the entry below.
Record C=C1C(=O)OC(CCCCCCCC)C1C(=O)O (centres undefined) . Reported Z-AUC: 0.453
